Values were extracted from ChEMBL document CHEMBL1961873.

- System: Mast/stem cell growth factor receptor Kit (Homo sapiens), P10721 [D816V]
- Sequence (P10721 whole entry D816V): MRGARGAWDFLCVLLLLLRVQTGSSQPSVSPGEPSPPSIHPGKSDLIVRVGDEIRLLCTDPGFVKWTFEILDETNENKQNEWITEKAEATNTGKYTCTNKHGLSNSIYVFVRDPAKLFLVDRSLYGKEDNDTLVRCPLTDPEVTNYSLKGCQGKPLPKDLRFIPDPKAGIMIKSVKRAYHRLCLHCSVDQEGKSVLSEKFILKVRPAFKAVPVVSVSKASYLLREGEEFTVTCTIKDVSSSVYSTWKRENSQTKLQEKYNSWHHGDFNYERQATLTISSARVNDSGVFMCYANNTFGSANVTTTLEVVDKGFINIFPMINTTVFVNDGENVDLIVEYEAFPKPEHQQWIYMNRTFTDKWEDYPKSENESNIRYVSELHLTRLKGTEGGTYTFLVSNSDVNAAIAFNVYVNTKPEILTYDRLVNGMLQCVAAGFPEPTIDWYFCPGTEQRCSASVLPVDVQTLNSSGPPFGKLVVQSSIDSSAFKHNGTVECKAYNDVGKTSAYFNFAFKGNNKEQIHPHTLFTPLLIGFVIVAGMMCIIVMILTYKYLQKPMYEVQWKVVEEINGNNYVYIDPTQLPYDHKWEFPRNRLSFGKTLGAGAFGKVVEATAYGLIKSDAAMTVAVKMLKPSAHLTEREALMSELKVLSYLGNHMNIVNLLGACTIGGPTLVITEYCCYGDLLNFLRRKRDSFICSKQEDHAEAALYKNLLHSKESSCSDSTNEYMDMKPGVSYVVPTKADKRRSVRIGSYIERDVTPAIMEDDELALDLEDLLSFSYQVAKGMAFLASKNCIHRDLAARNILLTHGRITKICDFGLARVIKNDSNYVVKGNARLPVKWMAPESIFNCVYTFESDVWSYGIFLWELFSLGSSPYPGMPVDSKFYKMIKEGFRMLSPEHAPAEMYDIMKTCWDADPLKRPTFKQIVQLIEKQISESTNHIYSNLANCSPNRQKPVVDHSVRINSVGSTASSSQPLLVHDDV
- Experimental Conditions: at 1 µM
Measure: inhibition (%)
Provide only the numeric value, understood in %.

These recorded examples may help you get a feel for the data.
Chemical Structure | Unit | Measurement
[O-][S+]1CCN(Cc2ccc(-c3ccc4ncnc(Nc5ccc(OCc6ccccc6)c(Cl)c5)c4c3)o2)CC1 | % | -2.37
COc1cc2ncnc(Nc3ccc4c(cnn4Cc4ccccc4)c3)c2cc1OC | % | 2.79
Nc1nccc(-c2c(-c3ccc(F)cc3)nn3cc(C(F)(F)F)ccc23)n1 | % | -0.82

### Prompt May I ask what inhibition has been recorded for Cc1nc(-c2ccccc2)n2nc(NCCCN3CCOCC3)ncc12 ?
### Response 1.56

### Prompt Same question for c1ccc(Cc2nc3ccc(Nc4ncnc5ccccc45)cc3[nH]2)cc1 please.
### Response 7.57

### Prompt Same question for Cc1ccc(NC(=O)CC2CC2)cc1-c1ccc(C(=O)NCC2CC2)cc1 please.
### Response 3.9

### Prompt Same question for Cc1ccc2c(c1)/C(=N/Nc1ccc(S(N)(=O)=O)cc1)C(=O)N2 please.
### Response -3.04

### Prompt Same question for Nc1ccc(C#Cc2cncnc2Nc2ccc(OCc3cccc(F)c3)c(Cl)c2)cc1 please.
### Response 3.81

### Prompt Same question for NS(=O)(=O)c1ccc(NC=C2C(=O)Nc3ccc4ncsc4c32)cc1 please.
### Response 31

### Prompt Same question for COc1cc(/C=N/Nc2ncnc3c2cnn3C(C)C)ccc1O please.
### Response 4.07

====

Reported inhibition values for the following compounds.
- Target Under Test: Testis-specific serine/threonine-protein kinase 1 (Homo sapiens) (UniProt Q9BXA7);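 also: mean percent inhibition of TSSK1, from the GSK PKIS screening dataset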
- Sequence (Q9BXA7 whole entry): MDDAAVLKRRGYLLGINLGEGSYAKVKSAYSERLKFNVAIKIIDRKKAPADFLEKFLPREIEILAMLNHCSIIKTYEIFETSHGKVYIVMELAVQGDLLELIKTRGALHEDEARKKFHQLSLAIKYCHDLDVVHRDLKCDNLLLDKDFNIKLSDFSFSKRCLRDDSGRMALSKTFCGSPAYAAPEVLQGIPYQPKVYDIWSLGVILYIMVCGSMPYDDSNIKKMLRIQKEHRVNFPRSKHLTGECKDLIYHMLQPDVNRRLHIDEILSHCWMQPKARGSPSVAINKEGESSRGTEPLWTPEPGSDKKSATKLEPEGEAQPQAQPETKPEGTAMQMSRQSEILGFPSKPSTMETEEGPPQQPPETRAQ
- Experimental Conditions: at 0.1 µM
Provide only the numeric value, understood in %.

These recorded examples may help you get a feel for the data.
Chemical Structure | Unit | inhibition
NS(=O)(=O)c1ccc(-c2cc3ccncc3cc2OCc2ccccc2)cc1 | % | 3.43
CCS(=O)(=O)c1ccc(OC)c(Nc2nccc(N(C)c3ccc4c(C)n[nH]c4c3)n2)c1 | % | 4.59
NC(=O)c1sc(-n2cnc3ccccc32)cc1OCc1ccccc1Br | % | 3.19
Cc1ccc2c(c1)/C(=N/Nc1ccc(S(N)(=O)=O)cc1)C(=O)N2 | % | -0.94
COc1cc(/C=N/Nc2ncnc3c2cnn3C(C)C)ccc1O | % | 1.68

### Prompt May I ask what inhibition has been recorded for N#Cc1cccc(Nc2nccc(-c3cnn4ncccc34)n2)c1 ?
### Response 6.69

### Prompt Same question for Cc1ccc(Nc2ccnc(Nc3cccc(C(N)=O)c3)n2)cc1O please.
### Response 3.41

### Prompt Same question for Cc1ccc2c(-c3ccnc(Nc4ccc5c(c4)OCCO5)n3)c(-c3ccc(C(F)(F)F)cc3)nn2n1 please.
### Response 1.7

### Prompt Same question for COc1cc(Nc2nccc(-c3cnn4ncccc34)n2)cc(OC)c1 please.
### Response 3.46

### Prompt Same question for c1ccc(Nc2ncc(-c3ccccc3)o2)cc1 please.
### Response 5.73

====

- System: Mast/stem cell growth factor receptor Kit (Homo sapiens), P10721 [T670I]
- Sequence (P10721 whole entry T670I): as the sequence (P10721 whole entry D816V) above, with T670I, V816D counted along it
- Experimental Conditions: at 1 µM
Measure: inhibition (%)
Provide only the numeric value, understood in %.

These recorded examples may help you get a feel for the data.
Chemical Structure | inhibition (%)
COc1cccc(-n2ncc3c(N/N=C/c4ccc(C)cc4)ncnc32)c1 | 4.07
Cc1ccc(Nc2ccnc(Nc3cccc(C(N)=O)c3)n2)cc1O | 5.43
[O-][S+]1CCN(Cc2ccc(-c3ccc4ncnc(Nc5ccc(OCc6ccccc6)c(Cl)c5)c4c3)o2)CC1 | 4.66
COc1ccc(-c2nn3ncccc3c2-c2ccnc(Nc3cccc(C(F)(F)F)c3)n2)cc1 | 4.13
COc1cc(Nc2nccc(-c3cnn4ncccc34)n2)cc(OC)c1 | 98.1

Could you now look at the following molecule, please?
### Prompt API: value(readout=inhibition, system=Mast/stem cell growth factor receptor Kit (Homo sapiens), P10721 [T670I]) for record NC(=O)c1cccc(Nc2nccc(Nc3cccc(F)c3)n2)c1
### Response 7.62

====

Reported inhibition values for the following compounds.
- Target Under Test: Cyclin-dependent kinase 5 (Homo sapiens);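 also: enzyme tested as the CDK5/p35 complex, values are mean percent inhibition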
- Experimental Conditions: at 0.1 µM
Provide only the numeric value, understood in %.

These recorded examples may help you get a feel for the data.
Compound | Unit | inhibition
Cc1cc(-c2ccccn2)cc(C)c1/C=C/c1cncc(-c2nn[nH]n2)c1 | % | 3.27
CN(C)CCCn1c(-c2nonc2N)nc2cnccc21 | % | 1.36
Cc1ccc2c(c1)/C(=N/Nc1ccc(S(N)(=O)=O)cc1)C(=O)N2 | % | 9.16
CCS(=O)(=O)c1ccc(OC)c(Nc2ncc(-c3cccc(OC)c3)o2)c1 | % | 0.02
Cc1ccc2c(-c3ccnc(Nc4cccc(C(F)(F)F)c4)n3)c(-c3ccccc3)nn2n1 | % | 2.11
O=C(Nc1ccc(Oc2ccc3[nH]c(NC(=O)c4ccco4)nc3c2)cc1)Nc1cc(C(F)(F)F)ccc1F | % | -4.37
COc1cc(/C=N/Nc2ncnc3c2cnn3C(C)C)ccc1O | % | 10.4
[O-][S+]1CCN(Cc2ccc(-c3ccc4ncnc(Nc5ccc(OCc6ccccc6)c(Cl)c5)c4c3)o2)CC1 | % | 0.19

### Prompt May I ask what inhibition has been recorded for N#Cc1c(NC(=O)c2ccccc2F)sc2c1CCCC2 ?
### Response 0.27

### Prompt Same question for Cc1cc(O)cc(C)c1/C=C/c1cncc(C(=O)N(C)C)c1 please.
### Response 1.19

### Prompt Same question for OCc1ccc(-c2nc(-c3ccccn3)c(-c3ccc4c(c3)OCO4)[nH]2)cc1 please.
### Response 0.69

### Prompt Same question for ON=C1CCc2cc(-c3nc(C4CCNCC4)[nH]c3-c3ccncc3)ccc21 please.
### Response 0.57

### Prompt Same question for CC(C)c1ccc(Nc2nccc(-c3cnn4ncccc34)n2)cc1 please.
### Response 12.7

### Prompt Same question for Cc1nc(-c2ccccc2)n2nc(NCCCN3CCOCC3)ncc12 please.
### Response 0.75

### Prompt Same question for COc1cccc(-n2nc(C)c3c(N/N=C(\C)c4ccncc4)ncnc32)c1 please.
### Response 0.97

====

Reported inhibition values for the following molecules.
- Target Under Test: Dual specificity tyrosine-phosphorylation-regulated kinase 1B (Homo sapiens);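 also: values are mean percent inhibition of DYRK1B, from the GSK_PKIS set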
- Experimental Conditions: at 1 µM
Provide only the numeric value, understood in %.

Chemical Structure | Measurement
O=C1Nc2ccc(-c3cccnc3)cc2C1=Cc1cc(Br)c(O)c(Br)c1 | 46.7

### Prompt May I ask what inhibition has been recorded for CC(C)c1ccc2c(c1)NC(=O)/C2=N/Nc1ccc(S(N)(=O)=O)cc1 ?
### Response 4.99

### Prompt Same question for Cc1ccc(C(=O)NC2CC2)cc1-c1ccc2[nH]ncc2c1 please.
### Response 3.29

### Prompt Same question for COc1ccc(-c2nn3ncccc3c2-c2ccnc(Nc3cccc(C(F)(F)F)c3)n2)cc1 please.
### Response 1.16

====

- Target Under Test: Serine/threonine-protein kinase MARK2 (Homo sapiens) (UniProt Q7KZI7)
- Sequence (Q7KZI7 whole entry): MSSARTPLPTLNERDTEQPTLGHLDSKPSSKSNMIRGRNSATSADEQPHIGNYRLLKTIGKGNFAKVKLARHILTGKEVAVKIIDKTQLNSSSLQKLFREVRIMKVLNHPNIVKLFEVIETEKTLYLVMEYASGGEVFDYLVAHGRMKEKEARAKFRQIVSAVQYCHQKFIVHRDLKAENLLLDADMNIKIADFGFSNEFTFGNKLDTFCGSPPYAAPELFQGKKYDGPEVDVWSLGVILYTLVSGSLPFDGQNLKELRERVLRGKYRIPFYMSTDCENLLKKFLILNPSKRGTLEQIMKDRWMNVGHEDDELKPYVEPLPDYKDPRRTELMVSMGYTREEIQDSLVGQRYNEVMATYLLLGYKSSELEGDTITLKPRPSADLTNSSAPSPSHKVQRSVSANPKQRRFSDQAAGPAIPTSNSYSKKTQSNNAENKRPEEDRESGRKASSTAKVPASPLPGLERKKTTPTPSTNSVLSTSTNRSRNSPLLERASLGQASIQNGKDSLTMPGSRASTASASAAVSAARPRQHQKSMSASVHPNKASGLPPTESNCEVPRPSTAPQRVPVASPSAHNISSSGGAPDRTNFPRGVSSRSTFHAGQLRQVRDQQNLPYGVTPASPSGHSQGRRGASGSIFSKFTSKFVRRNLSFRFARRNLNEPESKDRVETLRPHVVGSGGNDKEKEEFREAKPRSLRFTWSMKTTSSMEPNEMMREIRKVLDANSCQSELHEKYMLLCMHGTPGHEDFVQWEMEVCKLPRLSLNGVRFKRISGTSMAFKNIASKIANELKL
- Experimental Conditions: at 1 µM
- Description: GSK_PKIS: PAR-1Balpha mean inhibition at 1 uM [Nanosyn]
Measure: inhibition (%)
Provide only the numeric value, understood in %.

These recorded examples may help you get a feel for the data.
Chemical Structure | Measurement
NC(=O)c1cccc(Nc2nccc(Nc3cccc(F)c3)n2)c1 | 3.47
COc1cccc(-n2ncc3c(N/N=C/c4ccc(S(C)(=O)=O)cc4)ncnc32)c1 | 3.41
CC(C)c1ccc2c(c1)NC(=O)/C2=N/Nc1ccc(S(N)(=O)=O)cc1 | -0.8

### Prompt May I ask what inhibition has been recorded for Cc1ccc2c(-c3ccnc(Nc4ccc5c(c4)OCCO5)n3)c(-c3ccc(C(F)(F)F)cc3)nn2n1 ?
### Response 2.02

### Prompt Same question for [O-][S+]1CCN(Cc2ccc(-c3ccc4ncnc(Nc5ccc(OCc6ccccc6)c(Cl)c5)c4c3)o2)CC1 please.
### Response 2.27

### Prompt Same question for COc1cc(/C=N/Nc2ncnc3c2cnn3C(C)C)ccc1O please.
### Response 1.32

### Prompt Same question for O=S(=O)(CCOCc1ccc(-c2ccc3ncnc(Nc4ccc(OCc5cccc(F)c5)c(Cl)c4)c3c2)o1)c1ccccc1 please.
### Response 3.35

### Prompt Same question for NC(=O)c1sc(-n2cnc3ccccc32)cc1OCc1ccccc1Br please.
### Response 6.32

### Prompt Same question for COC(=O)Nc1nc2cc(Oc3ccc(NC(=O)Nc4cccc(Br)c4)cc3)ccc2[nH]1 please.
### Response 0.27

### Prompt Same question for NS(=O)(=O)c1ccc(Nc2cc(-c3cccc(O)c3)n[nH]2)cc1 please.
### Response 6.24

====

- Target Under Test: Rho-associated protein kinase 2 (Homo sapiens)
- Experimental Conditions: at 1 µM
- Description: GSK_PKIS: ROCK2 mean inhibition at 1 uM [Nanosyn]
Lab note: anything with inhibition at or over 4% counts as 1; the rest go in 0.

### Prompt Is it the case that CCCN1CCCC(c2ccc(Nc3nc(Nc4cc(F)ccc4C(N)=O)c4cc[nH]c4n3)c(OC)c2)C1 (stereo not given) has inhibition reaching or exceeding 4%?
### Response 1

### Prompt Same question for NC(=O)c1sc(-n2cnc3ccccc32)cc1OCc1ccccc1Br please.
### Response 0

### Prompt Same question for NS(=O)(=O)c1cccc(-c2cc3ccncc3cc2OCc2ccccc2)c1 please.
### Response 0

### Prompt Same question for CN(C)CCCn1c(-c2nonc2N)nc2cnccc21 please.
### Response 1

### Prompt Same question for O=C1Nc2ccc(-c3cccnc3)cc2C1=Cc1cc(Br)c(O)c(Br)c1 please.
### Response 1

### Prompt Same question for COC(=O)c1cncc(/C=C/c2c(C)cc(O)cc2C)c1 please.
### Response 1

### Prompt Same question for COc1ccc2ncnc(Nc3ccc(OCc4ccccc4)cc3)c2c1 please.
### Response 0

### Prompt Same question for CN(c1ccc(NC(=O)Nc2ccc(OC(F)(F)F)cc2)cc1)c1ccnc(Nc2cccc(S(N)(=O)=O)c2)n1 please.
### Response 0

### Prompt Same question for Cc1cc(-c2ccccn2)cc(C)c1/C=C/c1cncc(-c2nn[nH]n2)c1 please.
### Response 0

### Prompt Same question for CS(=O)(=O)CCNCc1nc(-c2ccc3ncnc(Nc4ccc(OCc5cccc(C(F)(F)F)c5)cc4)c3c2)cs1 please.
### Response 0
